# Read-out: Monocyte Chemoattractant Protein-1 (MCP1), CCL2 (gene 6347)
# Experiment Notes: BSK_CASM3C_MCP1: BioMAP Diversity Plus: CASM3C Assay for Monocyte Chemoattractant Protein-1 (MCP1) Biomarker Activity (AID 2283046);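 also: MCP-1 level quantified by ELISA 24 h after dosing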
# Conditions: primary human coronary artery smooth muscle cells; actives raise or lower the signal
Activity calls are given as the source filed them. The calls were made as follows: active = hit-call score of the fitted dose curve at least 0.9, where 1 is the maximum; inactive = score below 0.9.
Form entry, call: pick from t = active, f = inactive

Hey, what did the test say about CC1(C)C(C=C(Cl)Cl)C1C(=O)OCc1cccc(Oc2ccccc2)c1 (configuration not stated) ?
f

Record: `COCCO`
f

Record: CCC(C)OC(=O)N1CCCCC1CCO (configuration not stated)
f

Record: C=CCOC(Cn1ccnc1)c1ccc(Cl)cc1Cl (configuration not stated)
f

Record: `COC(=O)CSc1cc(N=c2sc(=O)n3n2CCCC3)c(F)cc1Cl`
f

Record: `CCSC(=O)N(CC(C)C)CC(C)C`
f

Record: `O=C(O)c1ccccc1`
f

Record: CCC(O)=C1C(=O)CC(C(=O)O)CC1=O (configuration not stated)
f

Record: `CCCCCOC(=O)COc1cc(N2C(=O)C3=C(CCCC3)C2=O)c(F)cc1Cl`
f

Record: `c1ccc2[nH]c(-c3cscn3)nc2c1`
f

Record: `COC(=O)c1ccc(I)cc1S(=O)(=O)NC(=O)Nc1nc(C)nc(OC)n1`
f

Record: `COC(=O)c1ccccc1S(=O)(=O)NC(=O)Nc1nc(OC(F)F)cc(OC(F)F)n1`
f

Record: `CCOC(=O)[C@H](C)Oc1ccc(Oc2nc3ccc(Cl)cc3o2)cc1`
f

Record: CCCCC(CC)COC(=O)c1ccccc1C(=O)O (configuration not stated)
f

Record: `CC(C)(C)[C@@H](O)[C@@H](Cc1ccc(Cl)cc1)n1cncn1`
f

Record: `CCN(CC)C(=O)c1cccc(C)c1`
f

Record: `CN(C)C(=O)Nc1ccc(Cl)c(Cl)c1`
f

Record: `O=C(Nc1ccc([N+](=O)[O-])cc1Cl)c1cc(Cl)ccc1O`
f

Record: `C[C@]12C[C@H](O)[C@H]3[C@@H](CCC4=CC(=O)CC[C@@]43C)[C@@H]1CC[C@@H]2C(=O)CO`
t

Record: `CC(=O)S[C@@H]1CC2=CC(=O)CC[C@]2(C)[C@H]2CC[C@@]3(C)[C@@H](CC[C@@]34CCC(=O)O4)[C@H]12`
t

Record: `Cc1nn(C)c(Oc2ccccc2)c1C=NOCc1ccc(C(=O)OC(C)(C)C)cc1`
f

Record: `COC(=O)c1ccccc1C(=O)O`
f

Record: C[C@]12CC[C@@H]3c4ccc(O)cc4C[C@@H](CCCCCCCCCS(=O)CCCC(F)(F)C(F)(F)F)[C@H]3[C@@H]1CC[C@@H]2O (some centres not stated)
f

Record: `CCNc1nc(N)nc(Cl)n1`
f

Record: `COc1c(Cl)ccc(Cl)c1C(=O)O`
f

Record: `c1ccc(Nc2ccccc2)cc1`
f

Record: `C#CCOC(=O)[C@@H](C)Oc1ccc(Oc2ncc(Cl)cc2F)cc1`
f

This collection of values is drawn from PubChem BioAssay (EPA / NIEHS).
